Values from paper PMC3755765

assay: Experimental Caco-2 permeability; conditions: human, Caco-2
readout: Papp (×10⁻⁶ cm/s)
Write it as a number; the unit ×10⁻⁶ cm/s goes unstated.

Exam item: Name the recorded Papp for Oc1cc(Cl)ccc1Oc1ccc(Cn2ccnn2)cc1Cl [Compound 16c] .
Marked response: 26.3
